# TARGET UNDER TEST: MMP-2 (Homo sapiens)
# Sequence (P08253 110-660): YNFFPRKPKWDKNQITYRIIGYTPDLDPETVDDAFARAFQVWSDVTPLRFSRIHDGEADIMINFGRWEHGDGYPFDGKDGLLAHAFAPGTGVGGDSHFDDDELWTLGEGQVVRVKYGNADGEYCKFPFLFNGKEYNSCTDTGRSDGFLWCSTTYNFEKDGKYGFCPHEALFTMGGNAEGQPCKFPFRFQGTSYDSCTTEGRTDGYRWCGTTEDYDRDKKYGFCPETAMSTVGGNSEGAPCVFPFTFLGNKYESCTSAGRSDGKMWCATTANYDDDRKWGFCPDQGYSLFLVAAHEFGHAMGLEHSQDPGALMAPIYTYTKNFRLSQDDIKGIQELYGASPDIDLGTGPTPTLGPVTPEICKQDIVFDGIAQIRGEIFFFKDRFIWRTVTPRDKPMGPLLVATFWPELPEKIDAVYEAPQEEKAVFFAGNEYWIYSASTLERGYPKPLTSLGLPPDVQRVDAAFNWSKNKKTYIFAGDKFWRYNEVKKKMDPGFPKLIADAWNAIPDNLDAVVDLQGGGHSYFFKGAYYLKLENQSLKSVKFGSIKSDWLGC
# ASSAY COMMENT: Determination of MMP inhibitory potency, MMP-2
# Type: biochemical
# Design: purchased R&D Systems, Minneapolis
# ASSAY CONDITIONS: read-out: IC50 (μM) on MMP-2
# Experimental: Recombinant enzymes, human MMP-1, MMP-2, MMP-3, MMP-8, MMP-9, MMP-12, MMP-13 and TACE (R&D Systems, Minneapolis) were incubated at four different concentrations with the relevant colorimetric or fluorescent peptide substrates (R&D Systems, Minneapolis) for 3 h. The tested compounds were added at four to six different concentrations and the inhibitory potencies expressed in a colorimetric change, was measured by an ELISA or fluorimeter.
Field: IC50. Provide a value for each of the compounds that follow.
Supply the numeric figure in µM, leaving out any unit text.

Reported IC50 ( O=C(NCCNS(=O)(=O)c1ccc(Oc2ccccc2)cc1)P(=O)(O)O [Compound 1] ) = 15

Reported IC50 ( O=C(NCCCCCNS(=O)(=O)c1ccc(Oc2ccccc2)cc1)P(=O)(O)O [Compound 4] ) = 5

Reported IC50 ( N[C@@H](CNC(=O)P(=O)(O)O)CNS(=O)(=O)c1ccc(Oc2ccccc2)cc1 [Compound 8S] ) = 15

Reported IC50 ( O=C(NCCNCCNS(=O)(=O)c1ccc(Oc2ccccc2)cc1)P(=O)(O)O [Compound 10] ) = 20

Reported IC50 ( O=C(NCCCCNS(=O)(=O)c1ccc(Oc2ccccc2)cc1)P(=O)(O)O [Compound 3] ) = 7

Reported IC50 ( O=C(NCCCCCCNS(=O)(=O)c1ccc(Oc2ccccc2)cc1)P(=O)(O)O [Compound 5] ) = 5

Reported IC50 ( NC(CNC(=O)P(=O)(O)O)CNS(=O)(=O)c1ccc(Oc2ccccc2)cc1 (racemic) [Compound 8] ) = 15

Reported IC50 ( N[C@H](CNC(=O)P(=O)(O)O)CNS(=O)(=O)c1ccc(Oc2ccccc2)cc1 [Compound 8R] ) = 20

Reported IC50 ( O=C(NCCCNS(=O)(=O)c1ccc(Oc2ccccc2)cc1)P(=O)(O)O [Compound 2] ) = 10
